- TARGET: enzyme I (phosphoenolpyruvate-protein phosphotransferase, EC 2.7.3.9) of the E. coli phosphotransferase system (E. coli, UniProt P08839 1-575)
- PROTOCOL: cell-based or functional assay
No end group written: not given here.

BINDER | UNIT_ANNOTATION | inhibition IC50
Ac-WHKR [peptide 13 Ac-WHKR] | µM | 5800
KKWHKRKK [peptide 8 KKWHKRKK] | µM | 440
KKWHRRKK [peptide 7 KKWHRRKK] | µM | 300
KKFDLRK [peptide 3 KKFDLRK] | µM | 820
KKWHLRKR [peptide 5 KKWHLRKR] | µM | 30
KKFHIRKR [peptide 9 KKFHIRKR] | µM | 160
WHKR [peptide 12 WHKR] | µM | 4900
KGWHKRKK [peptide 6 KGWHKRKK] | µM | 530
KKFHLRK [peptide 1 KKFHLRK] | µM | 150
